System: HS 578T breast
assay_info: NCI-60 one-dose screen, 48 h (100 = growth as untreated, 0 = no growth, -100 = all killed)
conditions_used: 10 µM unless noted
About 83,000 compounds went through this panel and 20% of them were active in at least one assay; those are over-represented in the sample as a whole.
Decide by growth: equal to or exceeding 60% means t, less means f.

Prompt: Determine whether this molecule has growth no lower than 60%: CCCCC#Cc1c(I)n(C2OC(CO[Si](C)(C)C(C)(C)C)C3OC(C)(C)OC32)c(=O)n(C(=O)c2ccccc2)c1=O (configuration not stated)
Completion: f

Prompt: Determine whether this molecule has growth no lower than 60%: "C=C(C)[C@@H]1CC[C@]2(CO)CC[C@]3(C)[C@H](CC[C@@H]4[C@@](C)(CCCN)[C@H](C(=C)C)CC[C@]43C)[C@@H]12"
Completion: f

Prompt: Determine whether this molecule has growth no lower than 60%: "O=C(c1c[nH]c2ccccc12)c1n[nH]c(=S)n1-c1ccc([N+](=O)[O-])cc1"
Completion: t

Prompt: Determine whether this molecule has growth no lower than 60%: CC[C@@H](C(=O)[C@@H](C)[C@@H](O)[C@H](C)[C@@H]1O[C@@H]([C@@H](CC)C(=O)ONC(=O)c2ccccc2O)CC[C@@H]1C)C1O[C@]2(C=CC(=O)[C@]3(CC[C@@](C)([C@H]4CC[C@](O)(CC)[C@H](C)O4)O3)O2)[C@H](C)C[C@@H]1C (some centres not stated)
Completion: f

Prompt: Determine whether this molecule has growth no lower than 60%: "CCCOC(=O)Nc1nc2ccc(SCC)cc2s1"
Completion: t

Prompt: Determine whether this molecule has growth no lower than 60%: COc1ccc(-c2cc(C(=O)N3N=C(c4ccc(N)cc4)CC3c3ccc(Cl)cc3)c3cc(OC)ccc3n2)cc1 (configuration not stated)
Completion: t
